# TARGET: UDP-N-acetylglucosamine--N-acetylmuramyl-(pentapeptide) pyrophosphoryl-undecaprenol N-acetylglucosamine transferase (Escherichia coli (strain K12))
# Sequence (whole entry): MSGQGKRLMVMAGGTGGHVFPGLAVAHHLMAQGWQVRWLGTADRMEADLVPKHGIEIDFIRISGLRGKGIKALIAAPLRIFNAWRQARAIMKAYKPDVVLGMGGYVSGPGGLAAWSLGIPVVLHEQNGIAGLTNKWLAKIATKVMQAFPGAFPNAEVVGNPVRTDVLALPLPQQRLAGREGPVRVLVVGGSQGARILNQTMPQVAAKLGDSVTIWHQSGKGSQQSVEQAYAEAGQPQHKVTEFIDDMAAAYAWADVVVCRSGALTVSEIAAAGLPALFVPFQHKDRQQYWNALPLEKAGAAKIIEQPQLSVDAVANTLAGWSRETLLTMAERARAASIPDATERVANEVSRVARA
# PROCEDURE_TEXT: Inhibition of Escherichia coli MurG at 2.5 microg/ml
MEASUREMENT_KIND: inhibition (%)
Provide the reading as a plain figure in %.

Item O=C(CN1C(=O)S/C(=C/c2ccc(Cl)cc2)C1=O)Nc1cc([N+](=O)[O-])ccc1O has what recorded inhibition?
72

Item Cc1cc(/C=C2\C(=O)NC(=S)N(c3ccc(Cl)cc3)C2=O)c(C)n1-c1cc(C(=O)O)cc(C(=O)O)c1 has what recorded inhibition?
88

Item NS(=O)(=O)c1ccc(-c2ccc(/C=C3\C(=O)N(c4cccc(S(N)(=O)=O)c4)N=C3C(F)(F)F)o2)cc1 has what recorded inhibition?
66

Item CC1CCN(CN2C(=O)/C(=C\c3ccc(C(C)(C)C)cc3)SC2=S)CC1 has what recorded inhibition?
88

Hey, just so you know, these numbers are from ChEMBL document CHEMBL3596159.
